Reported Unified cytotox values for a set of compounds
Tested on: HepG2 cells
assayInfo: HepG2 cytotoxicity assay
experimentalParameters: HepG2 cytotoxicity unified across the three screens
Description: Briefly, HepG2 cells were seeded onto compound-treated 384 well plates at a density of 2,500 cells per well in Minimal Essential Medium (MEM) plus 10% fetal bovine serum and 1% non-essential amino acids solution (NEAA). […] Cell viability was then measured in a fluorescent plate reader and percent inhibition calculated with respect to positive and negative controls.
Numbers only here, please. The scale is µM.

compound: Cc1oc(-c2ccc(Cl)cc2)cc1C(=O)NCCC1CCN(CCCCCNC(=O)/C=C/c2ccc(Cl)c(Cl)c2)CC1
testedTarget: HepG2 cells
numericValue: 3.71

compound: COc1cc(-c2cc(-c3ccc(S(C)(=O)=O)cc3)cnc2N)ccc1O
testedTarget: HepG2 cells
numericValue: 49.62

compound: N=C(/N=C(/NCCCCCCN/C(=N\C(=N)Nc1ccc(Cl)cc1)N1CCCCC1)N1CCCCC1)Nc1ccc(Cl)cc1
testedTarget: HepG2 cells
numericValue: 33.57

compound: CC(C)c1ccc(CN2CCC(CNC(=O)c3cc(-c4cccc(F)c4)cs3)C2)cc1.O=C(O)C(F)(F)F (stereo not shown)
testedTarget: HepG2 cells
numericValue: 5.77

input: Endpoint output: Unified cytotox of COc1ccc(Nc2nccc(-c3ccc4ccnc(NCCCCN)c4c3)n2)cc1 . Value?
output: 14.29

input: Repeat for the following compound: CCc1c(CCNCCCCCCNC(C)(C)Cc2ccc3c(c2CC)OCO3)ccc(OC)c1OC.Cl
output: 4.32

input: Then C[C@H](Cc1ccc(OCCCCCOc2ccc(C[C@@H](C)NC[C@H](O)c3cccc(Cl)c3)cc2)cc1)NC[C@H](O)c1cccc(Cl)c1.Cl ?
output: 1.95

----------
Test system: P. berghei ookinete development
experimentalParameters: primary screen at 1 μM, replicate B
property: % inhibition, Replicate B

compound: Cc1nc(C)c(-c2ccc(Oc3cc(Cl)cc(Cl)c3)cc2)c(O)c1Br
% inhibition, Replicate B: 115.81%
--
compound: CN1c2ccc([N+](=O)[O-])cc2C(C)(C)C12C=Cc1cc(Br)cc([N+](=O)[O-])c1O2 (stereo not drawn)
% inhibition, Replicate B: 65.28%
--
compound: Br.CC(CCON1C(N)=NC(N)=NC1(C)C)c1ccc(Cl)cc1 (stereo not drawn)
% inhibition, Replicate B: 33.21%
--
compound: CCN(CC)S(=O)(=O)n1ncc2c3c(N)nc(N)nc3ccc21.Cl
% inhibition, Replicate B: 57.06%
--
compound: CCOC(=O)c1cn(CC)c2cc(N3CCCCCC3)c(F)cc2c1=O
% inhibition, Replicate B: 113.32%

input: Name the recorded % inhibition, Replicate B for CC(C)n1ncc2c3c(N)nc(N)nc3ccc21 .
output: 39.71%

input: Next entry: Cc1cc(=O)c2cc(-c3ccc(OC(F)(F)F)cc3)ccc2[nH]1
output: 64.25%

input: Now this one: Cc1cc2c3c(N)nc(N)nc3ccc2n1C(C)C
output: 75.37%

input: What about this compound? Cc1[nH]c(C)c(-c2ccc(Oc3ccc(F)cc3)cc2)c(=O)c1Cl
output: 103.17%

----------
System: P. berghei ookinete development
experimentalParameters: read-out: Pb ODA IC50; this manuscript
Quick rule for you: IC50 under 3000 nM gets 1, anything else gets 0.

molecule: CCOC(=O)[C@H](Cc1cc([N+](=O)[O-])c(Oc2ccc(OC)c(Cc3ccc(OC)c(C(C)C)c3)c2)c([N+](=O)[O-])c1)NC(=O)C(F)(F)F [TCMDC-139398]
classLabel: 0
--
molecule: CCC(C(C)C)n1ccc2c3c(N)nc(N)nc3ccc21 (centres unmarked) [TCMDC-137872]
classLabel: 1
--
molecule: O=C(O)C(F)(F)F.O=c1[nH]ccc2nc(N[C@@H]3CCCNC3)nc(Nc3ccc(S(=O)(=O)N4CCOCC4)cc3)c12 [TCMDC-135038]
classLabel: 1

input: Take the molecule COc1cc(NC(=O)Nc2ccc(Br)cc2C(=O)Nc2ccc(Br)cc2)cc(OC)c1OC [TCMDC-139733] and say whether its IC50 is less than 3000 nM.
output: 0

input: What do you get for O=c1c2ccccc2[nH]c2cc(Cl)ccc12 [TCMDC-123989] ?
output: 1

input: And then Cc1cc(=O)c2cc(-c3ccc(OC(F)(F)F)cc3)ccc2[nH]1 [TCMDC-137042] , what is it?
output: 0

input: Also COc1cc(-c2cc(-c3ccc(S(C)(=O)=O)cc3)cnc2N)ccc1O [TCMDC-133343] ?
output: 1

----------
// % inhibition, Replicate B lookup, one value per entry
Tested on: P. berghei ookinete development
experimentalParameters: primary screen at 1 μM, replicate B
Number in %, nothing else.

input: I'd like to know its % inhibition, Replicate B. The compound in question is O=c1cc(NCCCN(Cc2ccccc2)Cc2ccccc2)[nH]c2ccccc12
output: 60.20

input: Another compound: CCn1cc(C(=O)O)c(=O)c2cc(F)c(N3CCN(S(=O)(=O)c4ccc(N)cc4)CC3)cc21
output: 60.71

input: Try this compound next: O=[N+]([O-])c1ccccc1C=NN=c1c2c([nH]c3ccccc13)CCCC2
output: 30.70

input: Another compound to look at: CN(Cc1cccc(F)c1)C1CCN(c2cc(NC(=O)c3ccc(F)cc3)ccn2)CC1.O=C(O)C(F)(F)F
output: 42.75

input: Note, next up: Cc1[nH]c(C)c(-c2ccc(-c3ccc(Cl)cc3)cc2)c(=O)c1Cl
output: 97.22

input: Again, but for CCOC(=O)c1c(-c2ccccc2)nc2c(sc3ccccc32)c1O
output: 85.53

input: Can you check COc1ccc2nccc(C(=O)NC3CCC(CCN4CCc5cc(C#N)ccc5C4)CC3)c2c1.Cl (centres unmarked) next?
output: 18.69

input: Similarly, COc1ccc(Nc2ncc(Cl)c(Nc3cccnc3C(N)=O)n2)cc1N1CCN(C)CC1.Cl ?
output: 92.91

----------
Tested on: HepG2 cells
assayInfo: HepG2 cytotoxicity assay
experimentalParameters: unified HepG2 value across the three screens
Binarize Unified cytotox at 2 µM; below is Condition met, at or above is Condition not met.

compound: COc1cc(Nc2ccc3cc(S(=O)(=O)N4CCCCC4C)ccc3n2)cc(OC)c1OC (centres unmarked)
classLabel: Condition not met
--
compound: Cc1[nH]c(C)c(C2CCC(c3ccc(Cl)cc3)CC2)c(=O)c1Cl (centres unmarked)
classLabel: Condition not met
--
compound: CC(C)c1nc(N2CCN(C(=S)NCc3ccccc3)CC2)c(C#N)c2c1COC(C)(C)C2
classLabel: Condition met
--
compound: CC[C@@]1(O)C(=O)OCc2c1cc1n(c2=O)Cc2c-1nc1cc3c(cc1c2CN1CCOCC1)OCO3.O=C(O)C(F)(F)F
classLabel: Condition met
--
compound: CCC(C)(C)c1ccc2nc(N)nc(N)c2c1C
classLabel: Condition met

input: Input Cc1noc(C)c1-c1cccc(CNCc2ccc(-c3cccc(-c4nc5cc(F)ccc5[nH]4)c3)cc2)c1.O=C(O)C(F)(F)F ; condition: Unified cytotox strictly below 2 µM. Does it hold?
output: Condition not met

input: Follow-up entry: CCOC(=O)C(=O)N1c2ccc(OCC)cc2-c2c(ssc2=S)C1(C)C
output: Condition not met

input: Same again, this time with CCN(CC)c1ccccc1CNC(=O)c1cc(Cl)c(N)cc1OC
output: Condition not met

----------
System: HepG2 cells
assayInfo: HepG2 cytotoxicity assay
experimentalParameters: HepG2 values of the three screens unified
# log10 Unified cytotox values compiled below
Each number you see is log10 of Unified cytotox, and the unit inside the log is µM.

Some molecules with known log10 Unified cytotox results, for comparison:
molecule: COc1ccc2nccc([C@@H](O)CN3CCC(NCCOc4cc(C(F)(F)F)ccc4F)CC3)c2c1.O=C(O)C(=O)O [TCMDC-140658]
log10 Unified cytotox: -2.46
//
molecule: Cc1cc2c3c(N)nc(N)nc3ccc2n1C(C)C [TCMDC-137864]
log10 Unified cytotox: -1.48
//
molecule: O=c1c(Br)ccccc1Br [TCMDC-142246]
log10 Unified cytotox: 1.14

input: Look up log10 Unified cytotox: COc1ccc2nc3cc(Cl)ccc3c(N)c2c1.Cl [TCMDC-125835]
output: 0.59

input: Next: CC(C)(CN)c1cc(-c2ccc(Cl)c(O)c2)c(-c2ccncc2)o1.Cl [TCMDC-141334]
output: 1.19

input: Can you handle Cc1[nH]c(C)c(-c2ccc(-c3ccc4c(c3)OCO4)nc2)c(=O)c1Br [TCMDC-136161] next?
output: 2.00

input: Also check Cc1[nH]c(C)c(-c2ccc(-c3cccc(Cl)c3)nc2)c(=O)c1Br [TCMDC-136160]
output: 2.00

input: Cool, now Cc1ccc(-n2c(Sc3ncnc4sccc34)nnc2N2CCCC2)cc1 [TCMDC-125247]
output: 1.91

input: And COc1ccc2nccc([C@@H](O)CN3CCC(NC(=O)c4cc5ccccc5[nH]4)CC3)c2c1.CS(=O)(=O)O [TCMDC-140780] ?
output: 1.71
